Each recorded value in this set is attributed to patent US7507727B2.

protocol_details: Pharmacokinetic/toxicokinetic evaluation in dogs
Assay type: in vivo, beagle dogs
condition_label: female, beagle, dog, plasma, iv, 1.2 mg/kg, female, 1.2 mg/kg IV infusion, Dose 1, read-out: mean terminal half-life (converted)
quantity_kind: half-life (h)
Provide the reading as a plain figure in h.

Return reported half-life; argument: CN1CCCC1CCNC(=O)c1cn2c3c(c(N4CCC(c5cnccn5)C4)c(F)cc3c1=O)Oc1cc3ccccc3cc1-2 (stereo not shown) [CX-3543]
3.8

----------
protocol_details: Pharmacokinetic/toxicokinetic evaluation in dogs
Type: in vivo, beagle dogs
condition_label: male, beagle, dog, plasma, iv, 1.2 mg/kg, male, Dose 1, 1.2 mg/kg IV once daily, mean, read-out: Cmax
Protocol: The study was conducted using three (3) test article and one (1) control article group. The control article was the solution (5% dextrose in water) used to dilute the test article prior to administration and was administered at the same volume as the high dose. The test article dosage levels for this study were approximately 12, 3.8, and 1.2 mg/kg. […] PK/TK: Blood samples for test article blood level analysis were taken. […] Plasma (lithium heparin anticoagulant) samples were prepared and analyzed.
quantity_kind: Cmax (ng/mL)
// note: answer is a bare numeric in ng/mL

Entry under review: CN1CCCC1CCNC(=O)c1cn2c3c(c(N4CCC(c5cnccn5)C4)c(F)cc3c1=O)Oc1cc3ccccc3cc1-2 (stereo not shown) [CX-3543] . Reported Cmax?
108
